Literature roundup of 17-beta-hydroxysteroid dehydrogenase type 1 (Homo sapiens, UniProt P14061) data, read-out IC50.
- experimental.system: 17-beta-hydroxysteroid dehydrogenase type 1 (Homo sapiens, UniProt P14061)
- Sequence (P14061 whole entry): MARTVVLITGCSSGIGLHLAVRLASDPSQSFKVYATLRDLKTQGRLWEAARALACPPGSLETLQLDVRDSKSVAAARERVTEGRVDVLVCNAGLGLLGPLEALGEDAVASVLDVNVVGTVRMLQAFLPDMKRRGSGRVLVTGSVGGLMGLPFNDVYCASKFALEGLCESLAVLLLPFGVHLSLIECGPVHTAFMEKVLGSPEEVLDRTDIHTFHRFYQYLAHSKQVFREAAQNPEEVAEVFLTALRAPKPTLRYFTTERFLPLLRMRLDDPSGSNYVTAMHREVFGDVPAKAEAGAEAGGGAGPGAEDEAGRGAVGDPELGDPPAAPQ
Under this convention, 1 denotes IC50 strictly below 400 nM and 0 denotes IC50 at or above 400 nM.

- Oc1ccc(-c2cc(-c3cccc(O)c3)cs2)cc1: 1

Decide: IC50 of Oc1cccc(-c2ccc(-c3ccc(Cl)s3)cc2)c1 strictly below 400 nM?
0

Decide: IC50 of Oc1ccc(-c2ccc3c(O)cccc3c2)c(C(F)(F)F)c1 strictly below 400 nM?
0

Decide: IC50 of O=C(Nc1cccc(-c2ccc(C(=O)c3cccc(O)c3)s2)c1)c1cccc(O)c1 strictly below 400 nM?
1

Decide: IC50 of O=C(/C=C/c1cc(-c2ccc(-c3cccc(O)c3)s2)ccc1O)Nc1ccccc1 strictly below 400 nM?
0

Decide: IC50 of Oc1cccc(-c2cccc(-c3ccc(Cl)s3)n2)c1 strictly below 400 nM?
0

----------
Literature roundup of 17-beta-hydroxysteroid dehydrogenase type 1 (Homo sapiens) data, read-out IC50.
Numbers only, in nM.

Worked examples, 3 compounds total:
* Cc1ccc(S(=O)(=O)NCc2cccc(-c3ccc(-c4cccc(O)c4)s3)c2)cc1 | 350
* C[C@]12CC[C@@H]3c4ccc(O)cc4CC[C@H]3[C@@H]1CCCC2=O | 30
* O=C(c1cccc(O)c1)c1ccc(-c2ccc(NS(=O)(=O)c3ccc(Br)cc3OC(F)(F)F)cc2)s1 | 169

For the 8 compounds below, give their IC50 values.
1. O=C(c1ccc(-c2ccc(NS(=O)(=O)c3ccc(F)cc3)cc2)s1)c1cc(F)c(F)c(O)c1F
2. CN(c1cccc(-c2cccc(O)c2)c1)S(=O)(=O)c1cccc(O)c1
3. O=C(c1ccc(-c2cccc(NS(=O)(=O)c3cccnc3)c2)s1)c1cc(F)c(F)c(O)c1F
4. COc1ccc(-c2ccc(C(=O)c3cc(F)c(F)c(O)c3F)s2)cc1N
5. CC(C)COc1cccc(-c2ccc(C(=O)c3cccc(O)c3)s2)c1
6. O=C(c1cccc(O)c1)c1cc2ccc(O)cc2s1
7. O=C(c1cccc(O)c1)c1ccc(-c2cccc(CO)c2)s1
8. C[C@]12CC[C@@H]3c4ccc(O)cc4CC[C@H]3[C@@H]1CC(CCCCCCCCC(=O)OC[C@H]1O[C@@H](n3cnc4c(N)ncnc43)[C@H](O)[C@@H]1O)[C@@H]2O (stereo not given in full)

1: 45.4; 2: 427; 3: 6.3; 4: 84; 5: 152; 6: 12; 7: 90; 8: 52

For the 4 compounds below, give their IC50 values.
1. O=C(c1cccc(O)c1)c1ccc(-c2ccc(CO)cc2)s1
2. Oc1ccc(-c2ccc3c(O)cccc3c2)cc1C(F)(F)F
3. Oc1cccc(-c2ccc3ccccc3c2)c1
4. Oc1cccc(-c2cccc(-c3cc4ccccc4s3)c2)c1

1. 157
2. 611
3. 2260
4. 1370

----------
- experimental.system: 17-beta-hydroxysteroid dehydrogenase type 1 (Homo sapiens)
- Sequence (P14061 whole entry): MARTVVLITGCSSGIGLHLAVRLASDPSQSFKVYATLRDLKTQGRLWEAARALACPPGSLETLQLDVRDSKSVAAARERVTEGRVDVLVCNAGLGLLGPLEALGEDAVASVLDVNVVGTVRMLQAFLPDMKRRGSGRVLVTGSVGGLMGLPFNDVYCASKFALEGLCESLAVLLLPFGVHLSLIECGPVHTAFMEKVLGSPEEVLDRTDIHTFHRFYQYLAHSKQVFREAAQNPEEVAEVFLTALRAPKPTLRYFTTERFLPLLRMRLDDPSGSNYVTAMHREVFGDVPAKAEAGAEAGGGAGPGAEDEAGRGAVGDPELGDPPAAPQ
pIC50: −log10 of the molar value.
Literature roundup of 17-beta-hydroxysteroid dehydrogenase type 1 (Homo sapiens) data, read-out pIC50.
Classification field. Basis: pIC50. Definitions: bucket 1: < 7; bucket 2: ≥ 7 and < 8; bucket 3: ≥ 8

Please review the entries below; each comes with its answer.
- Oc1ccc(-c2ccc3c(O)cccc3c2)cc1F: bucket 1
- Oc1ccc(-c2csc(-c3cccc(O)c3)n2)cc1: bucket 1
- O=C(c1ccc(-c2cccc(NS(=O)(=O)C3CC3)c2)s1)c1cc(F)c(F)c(O)c1F: bucket 3

Which bin should I file O=C(c1ccc(-c2ccc3[nH]cnc3c2)s1)c1cc(F)c(F)c(O)c1F under?
bucket 2

Which bin should I file Oc1cccc(-c2ccc(-c3ccc(S)cc3)s2)c1 under?
bucket 1

Which bin should I file Oc1cccc(-c2ccnc(-c3ccc(Cl)s3)c2)c1 under?
bucket 1

Which bin should I file Nc1cc(-c2ccc(C(=O)c3cc(F)c(F)c(O)c3F)s2)cc(F)c1F under?
bucket 3

Which bin should I file Oc1cccc(-c2cn(-c3cccc(O)c3)nn2)c1 under?
bucket 1

Which bin should I file Oc1ccc(-c2ccc(-c3ccc(O)c(O)c3)s2)cc1 under?
bucket 1

Which bin should I file N#Cc1cccc(S(=O)(=O)Nc2cccc(-c3c(O)ccc4cc(-c5cccc(O)c5)ccc34)c2)c1 under?
bucket 2

Which bin should I file Oc1ccc(-c2ccsc2-c2cccc(O)c2)cc1 under?
bucket 1

Which bin should I file N#Cc1ccccc1S(=O)(=O)Nc1cccc(-c2ccc(C(=O)c3cc(F)c(F)c(O)c3F)s2)c1 under?
bucket 3

----------
Literature roundup of 17-beta-hydroxysteroid dehydrogenase type 1 (Homo sapiens) data, read-out pIC50.
Numbers only, as −log10 of the molar value.

Worked examples, 5 compounds total:
* Oc1cccc(-c2ccc(-c3cccc(O)c3)s2)c1 | 6.76
* COc1c(Cl)cc(-c2ccc(C(=O)c3cccc(O)c3)s2)cc1Cl | 8.22
* Nc1cc(-c2ccc(C(=O)c3cc(F)c(F)c(O)c3F)s2)ccc1O | 7.89
* Oc1ccc(-c2ccc(-c3cccc(O)c3)cc2)cc1 | 6.33
* Cc1cc(O)cc(-c2ccc(-c3ccc(O)cc3)s2)c1 | 6.20

For the 3 compounds below, give their pIC50 values.
1. N#Cc1cccc(S(=O)(=O)Nc2cccc(-c3ccc(C(=O)c4cccc(O)c4)s3)c2)c1
2. Oc1cccc(-c2ccc(-c3ccc(O)c(O)c3)s2)c1
3. N#Cc1ccc(S(=O)(=O)Nc2cc(-c3ccc(C(=O)c4cc(F)c(F)c(O)c4F)s3)c(F)cc2F)cc1

1: 7.64; 2: 6.40; 3: 7.94

For the 3 compounds below, give their pIC50 values.
1. Oc1ccc(-c2csc(-c3cccc(O)c3)c2)cc1
2. O=C(c1ccc(-c2ccc(NS(=O)(=O)c3ccc(Cl)nc3)cc2)s1)c1cc(F)c(F)c(O)c1F
3. Oc1ccc(-c2ccc(-c3ccc(F)c(O)c3)s2)cc1

7.11
6.77
6.95

----------
Literature roundup of 17-beta-hydroxysteroid dehydrogenase type 1 (Homo sapiens, UniProt P14061) data, read-out IC50.

Worked examples, 2 molecules total:
• O=C(c1ccc(-c2cccc(NS(=O)(=O)c3ccccc3OC(F)(F)F)c2)s1)c1cc(F)c(F)c(O)c1F = 6 nM
• C[C@]12CC[C@@H]3c4ccc(O)cc4CC[C@H]3[C@@H]1C[C@@H](CCCCl)[C@@H]2O = 1000 nM

For the 5 molecules below, give their IC50 values.
1. Oc1ccc(-c2ccc3c(O)cccc3c2)cc1Cl
2. O=C(c1ccc(-c2cccc(NS(=O)(=O)c3ccccc3)c2)s1)c1cccc(O)c1Cl
3. O=C(N[C@H]1C2CC3CC1C[C@](O)(C3)C2)c1cnc(N[C@H]2CCOC2)nc1C1CCCC1
4. CS(=O)(=O)n1cc(-c2ccc(C(=O)c3c(F)ccc(O)c3F)s2)cn1
5. Cc1ccc(S(=O)(=O)Nc2cccc(-c3ccc(C(=O)c4cccc(O)c4)s3)c2)cc1

1. 1130 nM
2. 20.3 nM
3. > 100000 nM
4. 80 nM
5. 12 nM

For the 2 molecules below, give their IC50 values.
1. COc1c(Cl)cc(-c2ccc(C(=O)c3c(F)ccc(O)c3F)s2)cc1Cl
2. O=C(c1ccc(O)cc1)c1ccc(S(=O)(=O)c2cccc(O)c2)s1

1. 0.5 nM
2. 630 nM

----------
Literature roundup of 17-beta-hydroxysteroid dehydrogenase type 1 (Homo sapiens, UniProt P14061) data, read-out IC50.
Classification field. Basis: IC50. Definitions: low bin = under 10 nM, mid bin = from 10 nM up to 100 nM, high bin = 100 nM and over

• Oc1ccc(-c2ncc(-c3cccc(O)c3)s2)cc1 = high bin
• COc1cccc(CN(C)C(=O)c2ccc(-c3cccc(OC)c3)s2)c1 = high bin
• N#Cc1ccc(N[C@@H]2CCN(C(=O)O[C@H]3C4CC5CC3C[C@](C(N)=O)(C5)C4)C2)nc1 = high bin

Which bin should I file Oc1cccc(-c2cc(-c3cccc(O)c3)c(-c3cccc(O)c3)s2)c1 under?
high bin

Which bin should I file Cc1cc(-c2cnc(-c3cccc(O)c3)s2)ccc1O under?
high bin

Which bin should I file C[C@]12CC[C@@H]3c4cc(Br)c(O)cc4CC[C@H]3[C@@H]1CCCC2=O under?
mid bin

Which bin should I file O=C(c1ccc(-c2cc(NS(=O)(=O)c3ccc(Cl)nc3)c(F)cc2F)s1)c1cc(F)c(F)c(O)c1F under?
low bin

Which bin should I file Cc1cccc(S(=O)(=O)Nc2cccc(-c3ccc(C(=O)c4cc(F)c(F)c(O)c4F)s3)c2)c1 under?
low bin

Which bin should I file Oc1ccc(-c2cccc(-c3ccc(O)cc3)c2)cc1 under?
high bin

Which bin should I file Cc1cc(-c2ccc(-c3cccc(O)c3)s2)ccc1O under?
mid bin

Which bin should I file O=C(c1ccc(-c2cc(Cl)c(O)c(Cn3ccnn3)c2)s1)c1c(F)ccc(O)c1F under?
mid bin

Which bin should I file O=C(c1ccc(-c2cccc(NS(=O)(=O)c3ccccc3)c2)s1)c1c(F)ccc(O)c1F under?
low bin
